- condition set: in acetonitrile, 313.15 K
assay readout: solubility (mole fraction)
Write the value as a bare number.

Would you kindly share the measured solubility (mole fraction) for `N#Cc1cccc([N+](=O)[O-])c1` ?
0.164

====

- condition set: in acetone, 313.15 K
assay readout: solubility (mole fraction)
Please reply with the number alone, leaving off any unit.

Which solubility (mole fraction) is listed for `N#Cc1cccc([N+](=O)[O-])c1` ?
0.213

====

- condition set: in ethyl acetate, 278.15 K
assay readout: solubility (mole fraction)
When you answer, write just the number.

Requested field: solubility (mole fraction). Item: `N#Cc1cccc([N+](=O)[O-])c1`
0.0353

====

- condition set: in methanol, 288.15 K
assay readout: solubility (mole fraction)
Keep the answer to the number alone.

So what's the measured solubility (mole fraction) for this one? `N#Cc1cccc([N+](=O)[O-])c1`
0.00622
